Target: IRAK4 (Homo sapiens, UniProt Q9NWZ3)
Construct: endogenous in cells; host or cells: THP-1 cells
Sequence (Q9NWZ3 whole entry): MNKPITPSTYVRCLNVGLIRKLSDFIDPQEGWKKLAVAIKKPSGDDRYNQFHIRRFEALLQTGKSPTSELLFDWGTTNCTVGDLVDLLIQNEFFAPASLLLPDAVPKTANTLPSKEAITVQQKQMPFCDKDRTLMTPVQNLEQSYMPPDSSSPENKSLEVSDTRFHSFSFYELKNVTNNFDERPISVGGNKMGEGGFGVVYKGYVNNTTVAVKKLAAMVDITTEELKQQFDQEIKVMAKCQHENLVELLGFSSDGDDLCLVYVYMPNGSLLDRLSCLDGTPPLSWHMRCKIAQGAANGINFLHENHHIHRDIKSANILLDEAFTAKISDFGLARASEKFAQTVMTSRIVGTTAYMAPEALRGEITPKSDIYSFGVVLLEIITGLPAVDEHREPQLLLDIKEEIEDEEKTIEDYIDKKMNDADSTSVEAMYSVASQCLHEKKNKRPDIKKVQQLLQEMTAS
Assay: LVL THP1 HTRF (THP1 Homogeneous Time Resolved Fluorescence)
Format: cell-based
Conditions: THP1 cells, 18 h incubation with compound
reported.property: LVL THP1 HTRF YMIN (%)
Enter your answer as a number in %; do not include the unit.

Example results:
compound	result.number
C[C@H](C#N)Nc1cc(Nc2ncc(C#N)cn2)ncc1-n1cc([C@H]2CC[C@H](CCN3CCN(c4ccc(N5CCC(=O)NC5=O)cc4)CC3)CC2)nn1	18.9
C[C@H](C#N)Nc1cc(-n2ncc3cc(C#N)cnc32)ncc1-n1cc([C@H]2CC[C@H](CCN3CCN(c4ccc(N5CCC(=O)NC5=O)cc4)[C@@H](C)C3)CC2)nn1	8.6

// below: LVL THP1 HTRF YMIN requested for another compound
Request: Reported LVL THP1 HTRF YMIN, compound C[C@H](C#N)Nc1cc(-n2ncc3cc(C#N)cnc32)ncc1-n1cc([C@H]2CC[C@H](CCN3CCC(c4ccc(N5CCC(=O)NC5=O)cc4)C(F)C3)CC2)nn1 (stereo partly drawn) [P-399] : ____
Result: 8.2

The measured values listed here are drawn from patent US20240109881A1.
